From: patent US20140295512A1

Please provide measured U/mg NADPH (specific activity) for the entries that follow.
METHOD NOTES: KARI assay of purified S. exigua KARI and variants with NADPH (Examples 6-9)
Type: biochemical
CONDITION CONTEXT: cofactor NADPH
Experimental: S. exigua KARI activity or activities of its variants were assayed kinetically by monitoring the decrease in NADPH or NADH concentration by measuring the change in absorbance at 340 nm. […] Michaelis-Menten constants of the cofactors were determined with varying concentrations of NADPH (200-12 μM final) or NADH (200-6 μM final).
Output spec: scalar in U/mg, unitless text.

Task item: Which U/mg NADPH (specific activity) is listed for Se1_KARI^1AA10: S. exigua KARI variant S61C, S63D, I95T (protein, UniProt D0WGK0 1-342, looked up, variant S61C S63D I95T) Ketol-acid reductoisomerase …: MSVKTKEKEMAVTILYEQDVDPKVIQGLKVGIIGYGSQGHAHALNLMDSGVDVRVGLREGCSDWKTAEEAGLKVTDMDTAAEEADVIMVLVPDETQPKVYQEHIAAHLKAGNTLAFAHGFNIHYGYIVPPEDVNVIMCAPKGPGHIVRRQFTEGSGVPDLACVQQDATGNAWDIVLSYCWGVGGARSGIIKATFAEETEEDLFGEQAVLCGGLVELVKAGFETLTEAGYPPELAYFECYHEMKMIVDLMYESGIHFMNYSISNTAEYGEYYAGPKVINEQSREAMKEILKRIQDGSFAQEFVDDCNNGHKRLLEQREAINTHPIETTGAQIRSMFSWIKKED ?
Reply: 0.27

Task item: Which U/mg NADPH (specific activity) is listed for Se1_KARI^GE11-his6: S. exigua KARI variant G60V (protein, UniProt D0WGK0 1-342, looked up, variant G60V, His6 tag, S. exigua KARI variant G60V) Ketol-acid reductoisomerase …: MSVKTKEKEMAVTILYEQDVDPKVIQGLKVGIIGYGSQGHAHALNLMDSGVDVRVGLREVSSSWKTAEEAGLKVTDMDTAAEEADVIMVLVPDEIQPKVYQEHIAAHLKAGNTLAFAHGFNIHYGYIVPPEDVNVIMCAPKGPGHIVRRQFTEGSGVPDLACVQQDATGNAWDIVLSYCWGVGGARSGIIKATFAEETEEDLFGEQAVLCGGLVELVKAGFETLTEAGYPPELAYFECYHEMKMIVDLMYESGIHFMNYSISNTAEYGEYYAGPKVINEQSREAMKEILKRIQDGSFAQEFVDDCNNGHKRLLEQREAINTHPIETTGAQIRSMFSWIKKED ?
Reply: 0.8
